The measured values listed here are drawn from the NIST ThermoML archive (doi:10.1007/s10765-005-5570-x).

# measurement.parameters: 298.15 K; 8000 kPa; Liquid
Collected mass density values appear next to each entry.
// units = kg/m3; emit number, no label

Consider the following illustrative entries.
compound: CCOC(C)=O [ethyl acetate]
readout.units: kg/m3
mass density: 902.12
//
compound: ClCCCl [1,2-dichloroethane]
readout.units: kg/m3
mass density: 1253.07
//
compound: BrCBr [dibromomethane]
readout.units: kg/m3
mass density: 2489.54
//
compound: ClCCBr [1-bromo-2-chloroethane]
readout.units: kg/m3
mass density: 1735.1

Here is another compound to look at.
// sample ClCBr [bromochloromethane] , its mass density was 1934.88
